assay system: Caspase-7 (Homo sapiens)
Sequence (P55210 24-198 limits assumed): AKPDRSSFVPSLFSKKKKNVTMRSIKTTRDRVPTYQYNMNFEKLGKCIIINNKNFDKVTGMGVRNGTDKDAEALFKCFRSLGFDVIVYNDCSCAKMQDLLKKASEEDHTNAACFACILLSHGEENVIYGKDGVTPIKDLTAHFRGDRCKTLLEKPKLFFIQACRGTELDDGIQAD
Sequence (P55210 207-303 limits assumed): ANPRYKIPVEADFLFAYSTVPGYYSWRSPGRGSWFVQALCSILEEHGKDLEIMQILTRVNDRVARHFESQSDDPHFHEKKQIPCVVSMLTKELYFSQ
assay procedure: Inhibitory concentration against caspase-7
Under this convention, Yes denotes IC50 strictly below 4000 nM and No denotes IC50 at or above 4000 nM.

Is IC50 of CC(C)C[C@H](NC(=O)CSc1cccc2ccccc12)C(=O)N[C@H]1CC(=O)OC1O (stereo partly specified) strictly below 4000 nM?
Yes

CC(C)C[C@H](NC(=O)CCCc1ccc2ccccc2c1)C(=O)N[C@H]1CC(=O)OC1O (stereo partly specified) , same question.
No

CC(C)C[C@H](NC(=O)c1cccc2ccccc12)C(=O)N[C@H]1CC(=O)OC1O (stereo partly specified) , same question.
No

CC(C)C[C@H](NC(=O)CCSc1cccc2ccccc12)C(=O)N[C@H]1CC(=O)OC1O (stereo partly specified) , same question.
Yes

CC(C)C[C@H](NC(=O)COc1cccc2ccccc12)C(=O)N[C@H]1CC(=O)OC1O (stereo partly specified) , same question.
Yes

CC(C)C[C@H](NC(=O)COc1ccccc1OCc1ccccc1)C(=O)N[C@H]1CC(=O)OC1O (stereo partly specified) , same question.
Yes

CC(C)C[C@H](NC(=O)CSc1ccc2ccccc2c1)C(=O)N[C@H]1CC(=O)OC1O (stereo partly specified) , same question.
Yes

CC(C)C[C@H](NC(=O)COc1ccccc1C1CCCC1)C(=O)N[C@H]1CC(=O)OC1O (stereo partly specified) , same question.
Yes

CC(C)C[C@H](NC(=O)COc1ccc(C2CCCC2)cc1)C(=O)N[C@H]1CC(=O)OC1O (stereo partly specified) , same question.
No

CC(C)C[C@H](NC(=O)C(C)Oc1cccc2ccccc12)C(=O)N[C@H]1CC(=O)OC1O (stereo partly specified) , same question.
Yes

CC(C)C[C@H](NC(=O)Cc1ccc2ccccc2c1)C(=O)N[C@H]1CC(=O)OC1O (stereo partly specified) , same question.
No

====

For each of the compounds below, state its log10(IC50).
assay system: Caspase-7 (Homo sapiens)
assay procedure: Inhibitory concentration against caspase-7
Scale: log10; quantity: IC50; unit before log: µM

Fill blank: measured log10(IC50) of the compound CC(C)C[C@H](NC(=O)COc1ccc(Cl)c2ccccc12)C(=O)N[C@H]1CC(=O)OC1O (stereo partly specified) is ____.
0.53

CC(C)C[C@H](NC(=O)COc1ccc2ccccc2c1)C(=O)N[C@H]1CC(=O)OC1O (stereo partly specified) , same question.
0.95

Cc1ccc(OCC(=O)N[C@@H](CC(C)C)C(=O)N[C@H]2CC(=O)OC2O)c(C23CC4CC(CC(C4)C2)C3)c1 (stereo partly specified) , same question.
0.45

CC(C)C[C@H](NC(=O)COc1cccc(-c2ccccc2)c1)C(=O)N[C@H]1CC(=O)OC1O (stereo partly specified) , same question.
0.57

CC(C)C[C@H](NC(=O)COc1nccc2ccccc12)C(=O)N[C@H]1CC(=O)OC1O (stereo partly specified) , same question.
1.54

CC(C)C[C@H](NC(=O)COc1cccc2ncccc12)C(=O)N[C@H]1CC(=O)OC1O (stereo partly specified) , same question.
0.59

CC(C)C[C@H](NC(=O)COc1ccc2c(c1)CCCC2)C(=O)N[C@H]1CC(=O)OC1O (stereo partly specified) , same question.
0.36

CC(C)[C@@H](NC(=O)OCc1ccccc1)C(=O)C[C@H]1CC(=O)OC1O (stereo partly specified) , same question.
0.83

CC(C)C[C@H](NC(=O)COc1ccccc1-c1ccccc1)C(=O)N[C@H]1CC(=O)OC1O (stereo partly specified) , same question.
0.31

CC(C)C[C@H](NC(=O)Cc1cccc2ccccc12)C(=O)N[C@H]1CC(=O)OC1O (stereo partly specified) , same question.
0.86

CC(C)C[C@H](NC(=O)COc1ccnc2ccccc12)C(=O)N[C@H]1CC(=O)OC1O (stereo partly specified) , same question.
0.66

CC(C)C[C@H](NC(=O)/C=C/c1ccccc1)C(=O)N[C@H]1CC(=O)OC1O (stereo partly specified) , same question.
0.99

CC(C)C[C@H](NC(=O)COc1ccc(C23CC4CC(CC(C4)C2)C3)cc1)C(=O)N[C@H]1CC(=O)OC1O (stereo partly specified) , same question.
0.92

CC(C)C[C@H](NC(=O)CC(=O)c1ccc2ccccc2c1)C(=O)N[C@H]1CC(=O)OC1O (stereo partly specified) , same question.
0.87

CC(C)C[C@H](NC(=O)C(C)Oc1cccc2cc(Br)ccc12)C(=O)N[C@H]1CC(=O)OC1O (stereo partly specified) , same question.
1.51

CC(C)C[C@H](NC(=O)COc1cccc2cccnc12)C(=O)N[C@H]1CC(=O)OC1O (stereo partly specified) , same question.
0.18

CC(C)C[C@H](NC(=O)CCSc1ccc2ccccc2c1)C(=O)N[C@H]1CC(=O)OC1O (stereo partly specified) , same question.
0.77

CC(C)C[C@H](NC(=O)COc1ccccc1Cc1ccccc1)C(=O)N[C@H]1CC(=O)OC1O (stereo partly specified) , same question.
0.53

CC(C)C[C@H](NC(=O)CCOc1cccc2ccccc12)C(=O)N[C@H]1CC(=O)OC1O (stereo partly specified) , same question.
0.14

CC(C)C[C@H](NC(=O)CCOc1ccc2ccccc2c1)C(=O)N[C@H]1CC(=O)OC1O (stereo partly specified) , same question.
0.98

CC(C)C[C@H](NC(=O)COc1ccc(Oc2ccccc2)cc1)C(=O)N[C@H]1CC(=O)OC1O (stereo partly specified) , same question.
0.83

CC(C)C[C@H](NC(=O)CC(=O)c1cccc2ccccc12)C(=O)N[C@H]1CC(=O)OC1O (stereo partly specified) , same question.
1.05

Cc1ccc2ccccc2c1OCC(=O)N[C@@H](CC(C)C)C(=O)N[C@H]1CC(=O)OC1O (stereo partly specified) , same question.
0.62

CC(C)C[C@H](NC(=O)COc1ccc(Cc2ccccc2)cc1)C(=O)N[C@H]1CC(=O)OC1O (stereo partly specified) , same question.
0.64

CC(C)C[C@@H](NC(=O)OCc1ccccc1)C(=O)C[C@H]1CC(=O)OC1O (stereo partly specified) , same question.
1.34

CC(C)C[C@H](NC(=O)COc1cccc2cnccc12)C(=O)N[C@H]1CC(=O)OC1O (stereo partly specified) , same question.
0.54

CC(C)C[C@H](NC(=O)CCOc1ccccc1)C(=O)N[C@H]1CC(=O)OC1O (stereo partly specified) , same question.
0.78

CC(C)C[C@H](NC(=O)COc1ccc(-c2ccccc2)cc1)C(=O)N[C@H]1CC(=O)OC1O (stereo partly specified) , same question.
1.08

COc1ccc(OCC(=O)N[C@@H](CC(C)C)C(=O)N[C@H]2CC(=O)OC2O)c2ccccc12 (stereo partly specified) , same question.
0.61

CC(C)C[C@H](NC(=O)COc1c(Cl)cc(Cl)c2ccccc12)C(=O)N[C@H]1CC(=O)OC1O (stereo partly specified) , same question.
0.56

CC(C)C[C@H](NC(=O)COc1cccc2c1CCCC2)C(=O)N[C@H]1CC(=O)OC1O (stereo partly specified) , same question.
0.44

CC(C)C[C@H](NC(=O)COc1ccc(OCc2ccccc2)cc1)C(=O)N[C@H]1CC(=O)OC1O (stereo partly specified) , same question.
0.86

CC(C)C[C@H](NC(=O)CCc1cccc2ccccc12)C(=O)N[C@H]1CC(=O)OC1O (stereo partly specified) , same question.
0.94

====

For each of the compounds below, state its pIC50.
assay system: Caspase-3 (Homo sapiens, UniProt P42574)
Sequence (P42574 29-175 limits assumed): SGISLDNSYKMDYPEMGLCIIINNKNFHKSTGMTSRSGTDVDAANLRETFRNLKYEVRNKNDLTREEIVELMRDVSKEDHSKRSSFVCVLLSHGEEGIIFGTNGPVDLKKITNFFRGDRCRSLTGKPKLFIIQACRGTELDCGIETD
Sequence (P42574 176-277 limits assumed): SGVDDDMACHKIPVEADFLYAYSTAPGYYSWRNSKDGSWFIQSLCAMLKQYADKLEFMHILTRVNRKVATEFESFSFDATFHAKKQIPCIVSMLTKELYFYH
assay procedure: Inhibitory concentration of compound required against Caspase-3 compared to acylated dipeptides
Kindly note that pIC50 refers to -log10 of the concentration in mol/L and answer with the value alone.

// fetch Caspase-3 (Homo sapiens, UniProt P42574) pIC50 for CC(=O)N[C@@H](C(=O)O)C(=O)N[C@@H](CCC(=O)O)C(=O)N[C@H](C(=O)N[C@H]1CC(=O)OC1O)C(C)C (some centres undefined)
8.46

CC(C)C[C@H](NC(=O)[C@H](CCC(=O)O)NC(=O)OCc1ccccc1)C(=O)N[C@H]1CC(=O)OC1O (some centres undefined) , same question.
8.64

CC(C)C[C@H](NC(=O)[C@H](Cc1ccccc1)NC(=O)OCc1ccccc1)C(=O)N[C@H]1CC(=O)OC1O (some centres undefined) , same question.
6.86

CC(C)C[C@H](NC(=O)COc1ccc2ccccc2c1)C(=O)N[C@H]1CC(=O)OC1O (some centres undefined) , same question.
6.03

====

For each of the molecules below, state its pIC50.
assay system: UniProtKB P55212
Sequence (P55212 24-179 limits assumed): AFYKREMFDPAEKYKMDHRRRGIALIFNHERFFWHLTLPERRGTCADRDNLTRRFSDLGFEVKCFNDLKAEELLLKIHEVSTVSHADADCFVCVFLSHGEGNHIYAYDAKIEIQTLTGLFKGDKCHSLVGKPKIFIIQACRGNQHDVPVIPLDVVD
Sequence (P55212 194-293 limits assumed): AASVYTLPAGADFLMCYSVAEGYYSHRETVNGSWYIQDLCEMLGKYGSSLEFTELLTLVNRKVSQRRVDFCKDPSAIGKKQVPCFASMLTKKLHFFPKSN
assay procedure: Inhibitory concentration required against caspase-6
Kindly note that pIC50 refers to -log10 of the concentration in mol/L and answer with the value alone.

Fill blank: measured pIC50 of the molecule CC(C)C[C@H](NC(=O)CCOc1ccc2ccccc2c1)C(=O)N[C@H]1CC(=O)OC1O (some centres undefined) is ____.
5.23

CC(C)C[C@H](NC(=O)COc1cccc2c1CCCC2)C(=O)N[C@H]1CC(=O)OC1O (some centres undefined) , same question.
4.93

CC(C)C[C@H](NC(=O)COc1ccccc1Cc1ccccc1)C(=O)N[C@H]1CC(=O)OC1O (some centres undefined) , same question.
5.00

Cc1ccc2ccccc2c1OCC(=O)N[C@@H](CC(C)C)C(=O)N[C@H]1CC(=O)OC1O (some centres undefined) , same question.
4.49

CC(C)C[C@H](NC(=O)COc1ccc(Cl)c2ccccc12)C(=O)N[C@H]1CC(=O)OC1O (some centres undefined) , same question.
4.92

CC(C)C[C@H](NC(=O)COc1ccccc1C1CCCC1)C(=O)N[C@H]1CC(=O)OC1O (some centres undefined) , same question.
5.47

CC(C)C[C@H](NC(=O)CCCc1ccc2ccccc2c1)C(=O)N[C@H]1CC(=O)OC1O (some centres undefined) , same question.
4.84

CC(C)C[C@H](NC(=O)COc1ccc(Cc2ccccc2)cc1)C(=O)N[C@H]1CC(=O)OC1O (some centres undefined) , same question.
4.72

CC(C)C[C@H](NC(=O)C(C)Oc1cccc2cc(Br)ccc12)C(=O)N[C@H]1CC(=O)OC1O (some centres undefined) , same question.
4.86
